So I've got a bunch of molecules here, and I need their composite z-score values.
Experiment: small-molecule microarray binders of probe aWnt5a, primary screen, biochemical, biotinylated probe, 635/667 nm fluorescence (AID 1113);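 also: score merges 667 nm fluorescence intensity with signal-to-noise per printed feature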
Settings: higher = more signal
Respond using a number only.

### Prompt Need composite z-score of COC(=O)[C@@]1(Cc2ccc(F)cc2)[C@H]2c3cc(C(=O)N4CCCC4)n(CCc4c[nH]c5cc(F)ccc45)c3C[C@H]2CN1C(=O)c1ccccc1 , thanks.
### Response 0.562

### Prompt Need composite z-score of [N-]=[N+]=NCc1ccccc1C[C@]1(C(=O)N2CCCCC2)COC(c2ccc(OCCCO)cc2)=N1 , thanks.
### Response -0.255

### Prompt Need composite z-score of CCOC(=O)C[C@H]1[C@H](OC(=O)c2ccc(-c3ccccc3)cc2)[C@@H](NC(=O)c2ccc(-c3ccccc3)cc2)c2cc(OCCCO)ccc2N1C(=O)c1ccccc1 , thanks.
### Response -0.0721

### Prompt Need composite z-score of O=C(NC1CC1)[C@@H]1c2ccccc2C(=O)N(C2CCCCC2)[C@H]1c1ccc(CO)cc1 , thanks.
### Response -0.176

### Prompt Need composite z-score of COCCOC(=O)N1C(=O)[C@@]2(c3cc(C#CCCO)ccc31)[C@H](C(=O)N1CCN(c3ncccn3)CC1)[C@H]1C(=O)O[C@H](c3ccccc3)[C@H](c3ccccc3)N1[C@@H]2c1ccc(OCCO)cc1 , thanks.
### Response 0.0633

### Prompt Need composite z-score of C=CCC(OC(C)=O)[C@@H]1[C@@H](N(Cc2cccc3ccccc23)C(=O)c2ccc(C)cc2)c2cc(OCCCO)ccc2N1C(=O)Cc1ccc2ccccc2c1 (stereo partly drawn) , thanks.
### Response -0.0718

### Prompt Need composite z-score of Cc1ccc(S[C@]2(C(=O)NCCN3CCOCC3)CC(=O)N(C(C)C)[C@@H]2c2ccc(CO)cc2I)cc1 , thanks.
### Response -0.154

### Prompt Need composite z-score of C[C@]12C(=O)N(CCO)[C@@H]3C(=O)N(c4ccc(Cl)cc4)CC=CC31O[C@@H]1/C=C\CCCOC(=O)C12 (stereo partly drawn) , thanks.
### Response -0.18

### Prompt Need composite z-score of COCCOC(=O)N1C(=O)[C@@]2(c3cc(C#CCC(C(=O)OC)C(=O)OC)ccc31)[C@H](C(N)=O)[C@H]1C(=O)O[C@H](c3ccccc3)[C@H](c3ccccc3)N1[C@@H]2c1ccccc1OCCO , thanks.
### Response 0.0297

### Prompt Need composite z-score of C=CC[C@@]1(C(=O)NCCCOC)N=C(c2ccc(OCCCO)cc2)O[C@@H]1c1ccccc1CN=[N+]=[N-] , thanks.
### Response 0.0391

### Prompt Need composite z-score of O=C(c1ccccc1)N1Cc2ccccc2C[C@@]2(N=C(c3ccc(OCCCO)cc3)O[C@H]2c2ccccc2)C1=O , thanks.
### Response -0.0515

### Prompt Need composite z-score of COCCOC(=O)N1C(=O)[C@@]2(c3cc(C#CCNC(N)=O)ccc31)[C@H](c1ccccc1OCCO)N1[C@H](c3ccccc3)[C@H](c3ccccc3)OC(=O)[C@H]1[C@@H]2C(=O)N1CCCCCCC1 , thanks.
### Response 0.14

### Prompt Need composite z-score of CN(C)C(=O)[C@]1(CCS(=O)(=O)c2ccccc2)N=C(c2ccc(OCCCO)cc2)O[C@@H]1c1ccccc1CN=[N+]=[N-] , thanks.
### Response 0.0215

### Prompt Need composite z-score of CC(C)N1C(=O)[C@@]2(Cc3ccccc31)c1ccccc1C(=O)N(Cc1ccccc1)[C@H]2c1ccc(CO)cc1 , thanks.
### Response -0.124

### Prompt Need composite z-score of CCCCC(=C=CC[C@@H](O)c1ccccc1OCCO)C[C@@H](O)c1ccccn1 , thanks.
### Response -0.113

### Prompt Need composite z-score of C=CCNC(=O)[C@H]1[C@@H]2C(=O)O[C@@H](c3ccccc3)[C@@H](c3ccccc3)N2[C@@H](c2ccc(O)cc2)[C@]12C(=O)Nc1ccc(C#CCC(C(=O)OC)C(=O)OC)cc12 , thanks.
### Response -0.0495

### Prompt Need composite z-score of COC(=O)[C@@]1(Cc2ccc(F)cc2)[C@H]2c3cc(C(=O)N(C)C)n(CCF)c3C[C@H]2CN1C(=O)c1ccccc1 , thanks.
### Response 0.0657

### Prompt Need composite z-score of C=CC[C@]1(C(=O)NCC(O)CO)N=C(c2ccc(OCCCO)cc2)O[C@H]1c1ccccc1CN=[N+]=[N-] (stereo partly drawn) , thanks.
### Response 0.0181

### Prompt Need composite z-score of Cc1c(NC(=O)/C(C#N)=C/C=C/c2ccc([N+](=O)[O-])cc2)c(=O)n(-c2ccccc2)n1C , thanks.
### Response -0.0792

### Prompt Need composite z-score of COCCCNC(=O)[C@@]1(Cc2ccccc2I)c2ccccc2C(=O)N(Cc2ccccc2C(F)(F)F)[C@H]1c1ccc(CO)cc1 , thanks.
### Response -0.136

### Prompt Need composite z-score of C=CCOC(=O)[C@H]1[C@@H]2C(=O)O[C@@H](c3ccccc3)[C@@H](c3ccccc3)N2[C@@H](c2ccc(OCCOC(=O)[C@H]3C[C@H]4C(=O)NCC(=O)N4[C@H]3c3cccc(OCCO)c3)cc2)[C@]12C(=O)Nc1ccc(I)cc12 , thanks.
### Response 0.0629

### Prompt Need composite z-score of COC(=O)c1ccc(OC)c(/C=C\CC(OC(=O)c2ccncc2)c2ccccc2)c1 (stereo not drawn) , thanks.
### Response -0.101

### Prompt Need composite z-score of C=CCNC(=O)[C@H]1[C@@H]2C(=O)O[C@@H](c3ccccc3)[C@@H](c3ccccc3)N2[C@@H](c2ccc(OCCO)cc2)[C@]12C(=O)N(C(=O)OCCOC)c1ccc(C#CCC(C(=O)OC)C(=O)OC)cc12 , thanks.
### Response 0.291

### Prompt Need composite z-score of CN1C(=O)C2C=CC(C(O)c3ccc([N+](=O)[O-])cc3)N(Nc3ccccc3)C2C1=O (stereo not drawn) , thanks.
### Response 0.0968

### Prompt Need composite z-score of CC1C2C(CCCO)=CC(C3C(=O)N(C(N)=O)C(=O)C23)N1Cc1cccc(OC(F)(F)F)c1 (stereo not drawn) , thanks.
### Response -0.096

### Prompt Need composite z-score of COc1ccc(C(O)C2C=CC3C(=O)N(c4ccccc4)C(=O)C3N2Nc2ccccc2F)c2ccccc12 (stereo not drawn) , thanks.
### Response 0.416

### Prompt Need composite z-score of Cc1ccc(S[C@]2(C(=O)NC3CC3)CC(=O)N(C3Cc4ccccc4C3)[C@@H]2c2ccc(CO)cc2I)cc1 , thanks.
### Response -0.0758

### Prompt Need composite z-score of O=C(O)C1=CC[C@H]2C(=O)N(c3ccccc3)C(=O)[C@@H]12 , thanks.
### Response 0.155

---

So I've got a bunch of compounds here, and I need their z-score values.
Experiment: basal 3T3-L1 adipocyte mitochondrial potential changes, profiling panel, cell-based, JC-1 fluorescence, 3T3-L1 adipocytes, 24 h, 100 nL compound (AID 1168); also: test concentration not given here
Settings: JC-1 mitochondrial fluorescence, higher = more signal, called active from +8 up or from −8 down
Respond using a number only.

### Prompt Need z-score of CC(C)C(=C=CC[C@H](O)c1cccc(OCCO)c1)C[C@H](O)c1ccccn1 , thanks.
### Response 0.259

### Prompt Need z-score of C=CCOC(=O)[C@H]1[C@@H]2C(=O)O[C@@H](c3ccccc3)[C@@H](c3ccccc3)N2[C@@H](c2ccc(OCCOC(=O)[C@H]3C[C@H]4C(=O)NCC(=O)N4[C@H]3c3ccc(O)cc3)cc2)[C@]12C(=O)Nc1ccccc12 , thanks.
### Response 0.962

### Prompt Need z-score of O=C1O[C@H](c2ccccc2)[C@H](c2ccccc2)N2[C@H]1[C@@H](C(=O)Nc1nc3ccccc3s1)[C@]1(C(=O)Nc3ccccc31)[C@H]2c1ccccc1OCCO , thanks.
### Response 4.1

### Prompt Need z-score of COC(=O)[C@]1(Cc2ccccc2N=[N+]=[N-])N=C(c2ccc(OCCCO)cc2)O[C@@H]1c1ccccc1CN=[N+]=[N-] , thanks.
### Response -1.07

### Prompt Need z-score of CC1CC/C=C\[C@H]2OC34C=CCN(CCN5CCOCC5)C(=O)[C@H]3N(C(CO)C(C)C)C(=O)[C@@H]4C2C(=O)O1 (some centres undefined) , thanks.
### Response -0.161

### Prompt Need z-score of CC(C)[Si](C#Cc1ccccc1)(O[C@H](c1ccccc1)c1cn(Cc2ccccc2)nn1)C(C)C , thanks.
### Response 0.24

### Prompt Need z-score of CN1C2C=C(c3ccc(CO)cc3)C(C3C(=O)N(C(N)=O)C(=O)C32)C1C1CC1 (centres undefined) , thanks.
### Response -0.242

### Prompt Need z-score of O=C(NCCN1CCOCC1)[C@@H]1c2ccccc2C(=O)N(CC23CC4CC(CC(C4)C2)C3)[C@H]1c1ccc(CO)cc1 , thanks.
### Response -0.634

### Prompt Need z-score of O=C1NC(=O)C2C1C=CC(C(O)C1CCCCC1)N2Nc1ccccn1 (centres undefined) , thanks.
### Response -0.894

### Prompt Need z-score of C=CCNC(=O)[C@H]1[C@@H]2C(=O)O[C@@H](c3ccccc3)[C@@H](c3ccccc3)N2[C@@H](c2ccc(O)cc2)[C@]12C(=O)Nc1ccccc12 , thanks.
### Response -0.586

### Prompt Need z-score of COCCOC(=O)N1C(=O)[C@@]2(c3cc(C#CCCO)ccc31)[C@H](C(=O)N1CCN(c3ncccn3)CC1)[C@H]1C(=O)O[C@H](c3ccccc3)[C@H](c3ccccc3)N1[C@@H]2c1ccc(OCCO)cc1 , thanks.
### Response 0.0633

### Prompt Need z-score of C=CCNC(=O)[C@H]1[C@@H]2C(=O)O[C@@H](c3ccccc3)[C@@H](c3ccccc3)N2[C@@H](c2ccc(O)cc2)[C@]12C(=O)N(C(=O)OCCOC)c1ccc(C#Cc3ccc(OC)cc3)cc12 , thanks.
### Response 0.202

### Prompt Need z-score of C[C@]1(C(=O)O)c2ccccc2C(=O)N(Cc2cc(C(F)(F)F)cc(C(F)(F)F)c2)[C@H]1c1ccc(CO)cc1 , thanks.
### Response -0.107

### Prompt Need z-score of CCN1C(=O)C2CC(=O)C3C(CN(S(=O)(=O)c4ccc(C)cc4)C3c3ccc(C)cc3)C2C1=O (centres undefined) , thanks.
### Response -0.00388

Recorded values, source PubChem BioAssay.
